Test system: DNA
test protocol: Binding affinity to calf thymus DNA assessed as melting temperature at 10 uM by UV-Vis spectrophotometer analysis
Type: nucleic-acid assay
condition description: Bos taurus
readout type: Tm (°C)
The reply should be a number in °C, with the unit left off.

Query string: Tell me the measured Tm of O=C1c2cccc(O)c2C2=NC(CO)Oc3cccc1c32 (stereo not drawn) , please.
Result string: 64.3

Query string: Entry COc1cccc2c1C(=O)c1c(O)c3c(c(O)c1C2=O)C[C@@](O)(C(=O)CO)C[C@@H]3O[C@H]1C[C@H](N)[C@H](O)[C@H](C)O1 has what Tm?
Result string: 92

Query string: # query: Tm of entry O=C1c2cccc(O)c2C2=NC(CCCCO)Oc3cccc1c32 (stereo not drawn)
Result string: 62.2

Query string: Suppose we examine the compound O=C1c2cccc(O)c2C2=NC(CCO)Oc3cccc1c32 (stereo not drawn) ; what Tm value has been reported?
Result string: 57.2

Query string: Can you share its Tm? I mean this compound: NCCC1CCCCN1C1N=C2c3c(O)cccc3C(=O)c3cccc(c32)O1 (stereo not drawn)
Result string: 79.9

Query string: State the recorded Tm for this entry: O=C1c2cccc(O)c2C2=NC(CCCCCO)Oc3cccc1c32 (stereo not drawn)
Result string: 59.2

Query string: Which Tm value is on record for O=C1c2cccc(O)c2C2=NC(CCCO)Oc3cccc1c32 (stereo not drawn) ?
Result string: 58.4

Query string: Look at this compound and give its reported Tm. NCCC1CN(C2N=C3c4c(O)cccc4C(=O)c4cccc(c43)O2)CCO1 (stereo not drawn)
Result string: 66.2
